Provenance of the data: PubChem BioAssay (NCI)

System: SR leukemia
Experiment notes: NCI tumour cell line growth inhibition, 48 h; in the data active = GI50 below about 0.43 µM; inactive = the rest
Pick one: True for active, False for inactive

Exam item: Field: outcome | Entry: COc1ccc(Cn2cc3c(c2-c2ccccc2)CCc2cncnc2-3)cc1
Marked response: False

Exam item: Field: outcome | Entry: CO[C@@]12[C@H](COC(N)=O)C3=C(C(=O)C(C)=C(N)C3=O)N1C[C@@H]1N[C@@H]12
Marked response: True

Exam item: Field: outcome | Entry: COc1cc(C(=O)/C=C/c2c(-c3cccs3)nc3ccccn23)cc(OC)c1OC
Marked response: False

Exam item: Field: outcome | Entry: COc1cccc2cc(N(C)c3nc(C)nc4ccsc34)ccc12
Marked response: True

Exam item: Field: outcome | Entry: Cc1cc(Cl)ccc1Nc1nc(C(F)(F)F)ccc1C(=O)N/N=C/c1ccc(N(C)C)cc1
Marked response: False

Exam item: Field: outcome | Entry: C=CC1=C(C)C(Cc2[nH]c(/C=c3\[nH]/c(=C/C4=NC(=O)C(C)/C4=C\C)c(C)c3CCC(=O)O)c(CCC(=O)OC)c2C)NC1=O (stereo unspecified)
Marked response: False
